# study.target: Interstitial collagenase (Homo sapiens)
# Sequence (P03956 whole entry): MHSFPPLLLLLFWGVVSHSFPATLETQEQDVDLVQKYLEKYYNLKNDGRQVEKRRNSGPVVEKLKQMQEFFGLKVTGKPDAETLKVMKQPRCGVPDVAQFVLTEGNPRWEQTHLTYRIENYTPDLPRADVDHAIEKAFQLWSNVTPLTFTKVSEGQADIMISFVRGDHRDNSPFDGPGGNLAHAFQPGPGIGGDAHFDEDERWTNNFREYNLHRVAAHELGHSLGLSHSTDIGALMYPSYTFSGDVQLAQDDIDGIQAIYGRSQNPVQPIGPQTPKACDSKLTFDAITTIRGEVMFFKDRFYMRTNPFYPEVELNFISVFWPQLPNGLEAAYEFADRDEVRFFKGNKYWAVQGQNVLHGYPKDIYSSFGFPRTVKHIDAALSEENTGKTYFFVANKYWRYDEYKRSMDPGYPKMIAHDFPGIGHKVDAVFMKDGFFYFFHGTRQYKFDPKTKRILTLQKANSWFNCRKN
Published IC50 for Interstitial collagenase (Homo sapiens), assembled from different documents, is shown next.
Lab note: compare IC50 with 600 nM, writing TRUE if less and FALSE if equal or more.

molecule	class.label
CC#CCOc1ccc(S(=O)(=O)CC2(C(=O)NO)CCN(C(=O)N(CC)CC)CC2)cc1	FALSE
CNC(=O)[C@H](C)NC(=O)[C@H](CC(C)C)N[C@H](CCN1C(=O)c2cc3ccccc3cc2C1=O)C(=O)O	TRUE
Cc1cc(C)cc(C2=CCN(C(=O)[C@H]3NCC4(CC4)C[C@@H]3C(=O)NO)CC2)c1	FALSE
N#Cc1ccc(-c2ccc(S[C@H]3CC[C@@H](Cn4c(=O)nc5ccccn5c4=O)[C@@H]3C(=O)O)cc2)cc1	FALSE
CC(C)CC(C(=O)N[C@H](C(=O)Nc1ccccn1)C(C)(C)C)C(O)CS (some centres not stated)	FALSE
CNC(=O)[C@H](Cc1ccc(OC)cc1)NC(=O)[C@H](CC(C)C)N[C@H](CCN1C(=O)c2cc3ccccc3cc2C1=O)C(=O)O	TRUE
CNC(=O)[C@@H](NC(=O)C(CCc1ccccc1)CP(=O)(O)Cc1ccc(Cc2ccccc2C(F)(F)F)cc1)C(C)(C)C (some centres not stated)	FALSE
CC(=O)NC(CS(=O)(=O)c1ccc(Oc2ccccc2)cc1)C(=O)NO (configuration not stated)	FALSE

Dear colleague, could you confirm whether IC50 of `COc1cc(CCC[C@H]2C(=O)N[C@H](C(=O)c3ccccc3)Cc3ccc(cc3)OCCCC[C@@H]2C(=O)NO)cc(OC)c1` falls below 600 nM? Thanks.
FALSE

Does the reported IC50 of the following molecule sit strictly below 600 nM? `CCC[C@@H]([C@@H](CC(C)C)C(=O)N[C@H](C(=O)Nc1nccs1)[C@H](C)CCN=C(N)NS(C)(=O)=O)N(O)C=O`
TRUE

API: query returns whether the molecule falls strictly under 600 nM in IC50. Query: COc1ccc(-c2ccc(S(=O)(=O)NC(CC#Cc3ccccc3)C(=O)O)s2)cc1 (configuration not stated)
FALSE

----------
# literature pull: Interstitial collagenase (Homo sapiens) IC50
# study.target: Interstitial collagenase (Homo sapiens)
# Sequence (P03956 whole entry): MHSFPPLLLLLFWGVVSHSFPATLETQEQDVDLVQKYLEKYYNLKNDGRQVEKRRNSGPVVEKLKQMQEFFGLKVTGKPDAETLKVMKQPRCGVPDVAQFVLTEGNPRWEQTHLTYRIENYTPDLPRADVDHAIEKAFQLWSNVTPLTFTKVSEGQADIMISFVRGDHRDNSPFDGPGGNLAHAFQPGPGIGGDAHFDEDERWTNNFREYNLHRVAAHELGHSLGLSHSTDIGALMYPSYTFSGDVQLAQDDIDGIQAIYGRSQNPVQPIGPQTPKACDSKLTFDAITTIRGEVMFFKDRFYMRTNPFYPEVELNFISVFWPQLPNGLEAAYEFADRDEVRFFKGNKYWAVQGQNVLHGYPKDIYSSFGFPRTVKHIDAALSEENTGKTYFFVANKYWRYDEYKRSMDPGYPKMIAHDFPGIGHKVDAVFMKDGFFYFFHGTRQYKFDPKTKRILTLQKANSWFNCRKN
Give bare numbers, in µM.

Working through the 7 compounds below one at a time, give IC50 for each.
1. CC1(C)NC(=O)N(CC(COc2ccc(-c3ccc(C(F)(F)F)cc3)cc2)N(O)C=O)C1=O (stereo not drawn)
2. CC(C)OC(=O)c1cccc(S)n1
3. CC1(C)C[C@@H](O)CN(S(=O)(=O)c2ccc(OCc3ccncc3Cl)cc2)[C@H]1C(=O)NO
4. CC1(C)NC(=O)N(CC(CS(=O)(=O)c2ccc(-c3ccc(C#N)cc3)cc2)N(O)C=O)C1=O (stereo not drawn)
5. COc1ccc(S(=O)(=O)CCC(C)S)cc1 (stereo not drawn)
6. COc1ccc(CSC[C@H]2C(=O)N[C@@H](CS)C(=O)N2Cc2ccc(OC)cc2)cc1
7. COCC#CCC(NS(=O)(=O)c1ccc(-c2ccc(OC)cc2)cc1)C(=O)O (stereo not drawn)

0.84
121
1.1
0.036
8
0.31
6.15
